TESTED SYSTEM: CD73 (Homo sapiens)
Sequence (P21589 27-549): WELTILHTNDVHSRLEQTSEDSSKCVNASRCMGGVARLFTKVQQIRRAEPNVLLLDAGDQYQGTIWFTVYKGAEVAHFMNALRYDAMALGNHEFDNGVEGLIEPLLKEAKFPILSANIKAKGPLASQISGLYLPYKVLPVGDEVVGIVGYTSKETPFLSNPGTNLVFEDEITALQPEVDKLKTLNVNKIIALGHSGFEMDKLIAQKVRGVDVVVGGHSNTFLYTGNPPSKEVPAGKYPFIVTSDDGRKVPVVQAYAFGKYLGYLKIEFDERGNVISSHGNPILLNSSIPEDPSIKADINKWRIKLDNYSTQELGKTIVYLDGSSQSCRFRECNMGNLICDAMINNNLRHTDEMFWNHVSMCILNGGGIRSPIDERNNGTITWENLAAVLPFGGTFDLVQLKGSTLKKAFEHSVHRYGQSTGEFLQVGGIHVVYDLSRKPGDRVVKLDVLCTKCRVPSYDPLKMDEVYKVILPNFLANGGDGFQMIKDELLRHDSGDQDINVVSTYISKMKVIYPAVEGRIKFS
EXPERIMENT: Example A1: Biochemical Assay (CD73 inhibition, Malachite Green detection of AMP hydrolysis)
MEASUREMENT CONDITIONS: CD73 0.3208 nM, AMP 15 μM, Tris-HCl pH 7.4, Malachite Green, absorbance 620 nm; read-out: Biochemical IC50
QUANTITY KIND: IC50

// below: answered compounds
CO[P@@](=O)(CP(=O)(O)O)OC[C@H]1O[C@@H](n2nnc3c(NCc4ccccc4Cl)nc(Cl)nc32)[C@H](O)[C@@H]1O | 100 to 1000 nM
O=P(O)(O)CP(=O)(O)OC[C@H]1O[C@@H](n2nnc3c(N4CCC[C@H]4c4ccccc4)nc(Cl)nc32)[C@H](O)[C@@H]1O | 100 to 1000 nM
O=P(O)(O)CP(=O)(O)OC[C@H]1O[C@@H](n2ncc3c(NCc4ccccc4Cl)nc(Cl)nc32)C[C@@H]1O | 100 to 1000 nM
CN(Cc1ccccc1)c1nc(Cl)nc2c1nnn2[C@@H]1O[C@H](COP(=O)(O)CP(=O)(O)O)C[C@H]1O | 100 to 1000 nM
COP(=O)(CP(=O)(O)O)OC[C@H]1OC(n2nnc3c(NC4CCc5ccccc54)nc(Cl)nc32)[C@H](O)[C@@H]1O (stereo partly shown) | 100 to 1000 nM

Look up IC50 of COP(=O)(CP(=O)(O)O)OC[C@H]1O[C@@H](n2nnc3c(NCc4ccccc4Cl)nc(Cl)nc32)[C@H](O)[C@@H]1O (stereo partly shown) and report it.
100 to 1000 nM

Look up IC50 of COP(=O)(CP(=O)(O)O)OC[C@H]1O[C@@H](n2ncc3c(N(C)C4CCc5ccccc54)nc(Cl)nc32)[C@H](O)[C@@H]1O (stereo partly shown) and report it.
< 100 nM
